- System: Candida albicans
- assay text: Antifungal activity against Candida albicans up to 200 ug/ml by agar well diffusion method
- Assay type: functional, organism-based
Active and inactive are the calls of the source. The rule behind the calls is not given here.
observed property: Activity

{"columns": ["compound", "observed property", "value"],
 "data": [
  ["CCCCc1ccc(NC(=S)Nc2ccc(C3NC(=S)NC(C)=C3C(=O)OCC)cc2)cc1 (centres undefined)", "Activity", "inactive"],
  ["CCOC(=O)C1=C(C)NC(=S)NC1c1ccc(NC(=S)Nc2ccc(C)c(C)c2)cc1 (centres undefined)", "Activity", "inactive"],
  ["CCOC(=O)C1=C(C)NC(=S)NC1c1ccc(NC(=S)Nc2cc(F)cc(F)c2)cc1 (centres undefined)", "Activity", "inactive"],
  ["CCOC(=O)C1=C(C)NC(=S)NC1c1ccc(NC(=S)Nc2ccc(F)c(Cl)c2)cc1 (centres undefined)", "Activity", "inactive"]
]}

Origin of values: ChEMBL document CHEMBL3045793
